tested on: Clostridium sporogenes DSM 1664; experiment: growth (OD595) fold change vs plate DMSO controls (fold change (ratio)); higher = more growth; conditions: incubation time: 27 h, anaerobic, 37 °C
Where a name gives a salt, the structure may show the parent alone.
Measure Name: growth

These recorded examples may help you get a feel for the data.
CC(C(=O)O)c1ccc(-c2ccccc2)c(F)c1 (configuration not stated) [Flurbiprofen] (20 µM); 0.961
COCCOC(=O)C1=C(C)NC(C)=C(C(=O)OC(C)C)C1c1cccc([N+](=O)[O-])c1 (configuration not stated) [Nimodipine] (20 µM); 0.946
COc1ccc(CC(C)NCC(O)c2ccc(O)c(NC=O)c2)cc1 (configuration not stated) [Formoterol fumarate] (20 µM); 1.13
Cc1cc2c(s1)Nc1ccccc1N=C2N1CCN(C)CC1 [Olanzapine] (20 µM); 1.16
COCC1=C(C(=O)OC(C)OC(=O)OC(C)C)N2C(=O)[C@@H](NC(=O)/C(=N\OC)c3csc(N)n3)[C@H]2SC1 (some centres not stated) [Cefpodoxime proxetil] (20 µM); 1.05

I'm hoping you can list growth for every compound here, please.
1. COc1ccc2cc([C@H](C)C(=O)O)ccc2c1 [(S)-Naproxen] (20 µM)
2. CO/N=C(\C(=O)N[C@@H]1C(=O)N2C(C(=O)[O-])=C(C[n+]3cccc4c3CCC4)CS[C@H]12)c1csc(N)n1 [Cefpirome sulfate] (20 µM)

[1.04, 0.00168]

###

system: Clostridium sporogenes DSM 1664; experiment: fold change of Tryptamine concentration vs plate DMSO controls (fold change (ratio)); higher = more amine produced, active = hit call of the paper (significant change in both replicates, either direction); conditions: incubation time: 27 h, anaerobic, 37 °C
Counter-ions that a name gives are not always drawn.
Measure Name: fold change of Tryptamine concentration
Give bare numbers.

The following compounds have reported results that may help.
Cc1cc(C#N)cc(C)c1Oc1nc(Nc2ccc(C#N)cc2)nc(N)c1Br [Etravirine] (20 µM); 1.03
O=C(CCCN1CCC(O)(c2ccc(Br)cc2)CC1)c1ccc(F)cc1 [Bromperidol] (20 µM); 1.02
CC(C)NC[C@@H](O)COc1ccc(CC(N)=O)cc1 [(R,+) Atenolol] (20 µM); 1.05
COc1cc2c(cc1OC)CC(=O)N(CCCN(C)C[C@H]1Cc3cc(OC)c(OC)cc31)CC2 [Ivabradine hydrochloride] (20 µM); 1.01
OC(CCN1CCCCC1)(c1ccccc1)c1ccccc1 [Pridinol methanesulfonate salt] (20 µM); 1.03

Query compound follows.
Find the measured fold change of Tryptamine concentration: item C[C@@H]1[C@H](O)[C@@H](C)/C=C/C=C/C=C/C=C/C=C/C=C/C=C/[C@H](O[C@@H]2O[C@H](C)[C@@H](O)[C@H](N)[C@@H]2O)C[C@@H]2O[C@](O)(C[C@@H](O)C[C@@H](O)[C@H](O)CC[C@@H](O)C[C@@H](O)CC(=O)O[C@H]1C)C[C@H](O)[C@H]2C(=O)O [Amphotericin B] (20 µM) , target or system Clostridium sporogenes DSM 1664.
0.985

###

system: Escherichia coli IAI1; test: growth (OD595) fold change vs plate DMSO controls (fold change (ratio)); higher = more growth; settings: incubation time: 27 h, anaerobic, 37 °C
Counter-ions that a name gives are not always drawn.
For each record, write down the corresponding growth.
Give bare numbers.

For orientation, consider the following solved cases.
Cc1ccc(Cl)c(Nc2ccccc2C(=O)O)c1Cl [Meclofenamic acid sodium salt monohydrate] (20 µM); 0.972
C[N+]1(C)CCC(=C(c2ccccc2)c2ccccc2)CC1 [Diphemanil methylsulfate] (20 µM); 1.02
OCCN(CCO)c1nc(N2CCCCC2)c2nc(N(CCO)CCO)nc(N3CCCCC3)c2n1 [Dipyridamole] (20 µM); 1.03

Please turn your attention to the following entry.
Would you kindly share the measured growth for CC1=C(C(=O)O)N2C(=O)[C@@H](NC(=O)[C@H](N)C3=CCC=CC3)[C@H]2SC1 [Cephradine monohydrate] (20 µM) ?
1.04
